- Target System: Metabotropic glutamate receptor 4 (Rattus norvegicus)
- Sequence (P31423 whole entry): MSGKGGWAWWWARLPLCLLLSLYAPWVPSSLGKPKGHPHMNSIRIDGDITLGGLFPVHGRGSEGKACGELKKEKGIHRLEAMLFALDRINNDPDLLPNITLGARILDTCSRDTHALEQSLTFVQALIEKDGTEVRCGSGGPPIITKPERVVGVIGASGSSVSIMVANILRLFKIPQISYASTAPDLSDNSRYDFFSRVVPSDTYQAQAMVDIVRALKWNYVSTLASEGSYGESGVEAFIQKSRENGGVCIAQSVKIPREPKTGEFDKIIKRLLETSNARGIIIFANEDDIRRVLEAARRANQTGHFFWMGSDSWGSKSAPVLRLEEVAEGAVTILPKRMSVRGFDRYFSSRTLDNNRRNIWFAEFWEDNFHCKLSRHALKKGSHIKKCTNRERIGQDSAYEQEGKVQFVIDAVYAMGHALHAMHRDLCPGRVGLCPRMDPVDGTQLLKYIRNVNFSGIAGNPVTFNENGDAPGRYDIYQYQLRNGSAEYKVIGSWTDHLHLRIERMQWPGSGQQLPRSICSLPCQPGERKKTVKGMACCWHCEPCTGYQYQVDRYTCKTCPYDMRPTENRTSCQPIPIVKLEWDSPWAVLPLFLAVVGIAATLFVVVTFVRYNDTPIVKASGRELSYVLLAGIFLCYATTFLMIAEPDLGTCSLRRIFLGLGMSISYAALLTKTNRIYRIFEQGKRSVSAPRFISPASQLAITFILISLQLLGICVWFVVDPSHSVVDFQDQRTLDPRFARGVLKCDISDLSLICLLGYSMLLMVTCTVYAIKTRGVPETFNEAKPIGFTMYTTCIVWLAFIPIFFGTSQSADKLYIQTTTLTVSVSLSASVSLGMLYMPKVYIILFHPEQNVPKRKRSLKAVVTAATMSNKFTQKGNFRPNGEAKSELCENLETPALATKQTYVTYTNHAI
- Experiment Notes: Metabotropic glutamate receptor 4 agonist activity to influence forskolin stimulated c-AMP formation in rat non neuronal cells
- Assay type: functional, cell-based
Measurement Name: EC50

Study these solved cases before continuing.
# Molecule, Target System, Observed Measurement
rows = [
    ("N[C@H](C(=O)O)c1ccc(C(=O)O)c(C(=O)O)c1", "Metabotropic glutamate receptor 4 (Rattus norvegicus)", "8.8 µM"),
    ("N[C@H](C(=O)O)[C@H]1C[C@@H]1C(=O)O", "Metabotropic glutamate receptor 4 (Rattus norvegicus)", "4 µM"),
    ("N[C@@H](CCP(=O)(O)O)C(=O)O", "Metabotropic glutamate receptor 4 (Rattus norvegicus)", "0.32 µM"),
]

Problem: State its EC50: NC(C(=O)O)c1ccc(P(=O)(O)O)cc1 (racemic)
Solution: 5.2 µM

Problem: State its EC50: `C[C@H]1[C@H](C(=O)O)[C@H]1[C@H](N)C(=O)O`
Solution: > 100 µM

====

- Target System: Metabotropic glutamate receptor 8 (Rattus norvegicus)
- Sequence (P70579 whole entry): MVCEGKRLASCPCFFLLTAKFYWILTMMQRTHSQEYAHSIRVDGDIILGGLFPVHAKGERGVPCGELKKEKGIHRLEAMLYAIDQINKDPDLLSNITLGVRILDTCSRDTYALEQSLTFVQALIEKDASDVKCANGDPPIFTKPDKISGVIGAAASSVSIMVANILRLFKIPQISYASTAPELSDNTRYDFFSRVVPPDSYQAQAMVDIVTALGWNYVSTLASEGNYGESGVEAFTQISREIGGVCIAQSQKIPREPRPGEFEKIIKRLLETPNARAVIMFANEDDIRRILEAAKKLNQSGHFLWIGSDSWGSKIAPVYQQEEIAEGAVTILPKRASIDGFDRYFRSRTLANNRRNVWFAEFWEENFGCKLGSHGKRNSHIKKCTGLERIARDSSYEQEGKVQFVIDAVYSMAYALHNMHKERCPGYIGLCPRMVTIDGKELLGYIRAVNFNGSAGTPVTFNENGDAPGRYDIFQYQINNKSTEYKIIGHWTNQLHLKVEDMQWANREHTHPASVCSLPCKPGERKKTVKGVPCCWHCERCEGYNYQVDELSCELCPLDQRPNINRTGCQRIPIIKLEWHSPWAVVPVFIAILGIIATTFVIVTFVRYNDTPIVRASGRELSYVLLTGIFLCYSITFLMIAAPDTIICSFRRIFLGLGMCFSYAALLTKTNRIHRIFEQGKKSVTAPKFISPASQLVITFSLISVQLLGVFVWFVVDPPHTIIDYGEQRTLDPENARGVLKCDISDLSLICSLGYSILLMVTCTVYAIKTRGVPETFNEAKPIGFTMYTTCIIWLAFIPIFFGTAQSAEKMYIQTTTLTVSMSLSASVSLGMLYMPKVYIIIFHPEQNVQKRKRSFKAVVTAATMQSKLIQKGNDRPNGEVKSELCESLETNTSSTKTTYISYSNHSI
- Experiment Notes: Metabotropic glutamate receptor 8 antagonist activity to influence forskolin stimulated c-AMP formation in rat non neuronal cells
- Format: functional, cell-based
Measurement Name: EC50 (µM)
Please reply with the bare figure in µM and do not write the unit itself.

Problem: State its EC50: N[C@H](C(=O)O)C1[C@@H](C(=O)O)[C@@H]1C(=O)O (stereo partly specified)
Solution: 32

====

- Target System: UniProt P31422
- Experiment Notes: Metabotropic glutamate receptor 3 agonist activity against forskolin stimulated c-AMP formation in rat non neuronal cells
The following molecules are shown together with reported pEC50 values.
# pEC50 is unitless: minus log10 of the molar concentration; print number only

Study these solved cases before continuing.
# Molecule, pEC50
rows = [
    ("N[C@H](C(=O)O)C1[C@@H](C(=O)O)[C@@H]1C(=O)O (stereo partly specified)", 6.70),
    ("C[C@H]1[C@H](C(=O)O)[C@H]1[C@H](N)C(=O)O", 7.42),
]

Shift focus to the following entry.
Problem: State its pEC50: `N[C@H](C(=O)O)[C@H]1C[C@@H]1C(=O)O`
Solution: 6.22

====

The following compounds are shown together with reported pEC50 values.
- Target System: UniProtKB P23385
- Sequence (P23385 whole entry): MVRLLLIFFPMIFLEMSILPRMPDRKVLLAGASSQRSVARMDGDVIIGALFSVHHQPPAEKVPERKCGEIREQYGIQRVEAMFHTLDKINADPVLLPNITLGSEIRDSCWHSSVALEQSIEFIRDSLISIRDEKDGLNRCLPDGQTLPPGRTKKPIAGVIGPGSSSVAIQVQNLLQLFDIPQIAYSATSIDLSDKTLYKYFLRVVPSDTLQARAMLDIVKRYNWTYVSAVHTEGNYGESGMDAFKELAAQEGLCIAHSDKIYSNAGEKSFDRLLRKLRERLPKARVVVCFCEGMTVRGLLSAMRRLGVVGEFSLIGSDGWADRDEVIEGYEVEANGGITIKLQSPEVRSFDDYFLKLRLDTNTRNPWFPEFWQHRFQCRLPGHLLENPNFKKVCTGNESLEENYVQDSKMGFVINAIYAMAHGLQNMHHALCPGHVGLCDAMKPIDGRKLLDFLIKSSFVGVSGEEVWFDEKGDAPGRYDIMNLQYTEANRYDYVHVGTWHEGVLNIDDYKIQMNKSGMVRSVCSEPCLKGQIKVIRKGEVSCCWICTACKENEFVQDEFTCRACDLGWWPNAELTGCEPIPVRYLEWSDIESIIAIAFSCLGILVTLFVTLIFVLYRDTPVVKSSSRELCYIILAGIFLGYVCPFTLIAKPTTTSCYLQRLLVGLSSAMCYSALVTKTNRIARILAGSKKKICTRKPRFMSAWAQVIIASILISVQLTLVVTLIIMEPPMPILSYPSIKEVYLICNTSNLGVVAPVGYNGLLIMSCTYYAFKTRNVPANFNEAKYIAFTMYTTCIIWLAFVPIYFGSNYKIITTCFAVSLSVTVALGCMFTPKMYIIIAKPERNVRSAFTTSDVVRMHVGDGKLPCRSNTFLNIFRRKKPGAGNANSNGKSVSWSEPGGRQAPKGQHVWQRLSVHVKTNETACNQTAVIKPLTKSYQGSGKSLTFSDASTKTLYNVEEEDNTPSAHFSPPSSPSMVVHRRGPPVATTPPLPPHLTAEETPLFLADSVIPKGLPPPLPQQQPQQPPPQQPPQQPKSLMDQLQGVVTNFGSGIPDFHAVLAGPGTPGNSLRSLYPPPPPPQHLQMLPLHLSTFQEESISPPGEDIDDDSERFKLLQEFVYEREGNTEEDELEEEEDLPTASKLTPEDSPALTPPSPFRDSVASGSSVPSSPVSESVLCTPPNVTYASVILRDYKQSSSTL
- Experiment Notes: Metabotropic glutamate receptor 1 agonist activity as basal [3H]- IP formation in rat
pEC50: −log10 of the molar value.

Study these solved cases before continuing.
# Compound, Target System, Observed Measurement
rows = [
    ("N[C@H](C(=O)O)[C@H]1[C@@H](CC(=O)O)[C@@H]1C(=O)O", "UniProtKB P23385", "< 4.00"),
    ("N[C@H](C(=O)O)c1ccc(C(=O)O)c(C(=O)O)c1", "UniProtKB P23385", 4.49),
    ("NC(C(=O)O)c1ccc(P(=O)(O)O)cc1 (racemic)", "UniProtKB P23385", "< 3.30"),
    ("N[C@H](C(=O)O)C1[C@@H](C(=O)O)[C@@H]1C(=O)O (stereo partly drawn)", "UniProtKB P23385", "< 4.00"),
    ("N[C@H](C(=O)O)[C@H]1[C@H](CC(=O)O)[C@@H]1C(=O)O", "UniProtKB P23385", "< 4.00"),
    ("N[C@H](C(=O)O)[C@H]1C[C@@H]1C(=O)O", "UniProtKB P23385", 4.64),
]

Problem: State its pEC50: `N[C@@H](CCP(=O)(O)O)C(=O)O`
Solution: < 4.00

Problem: State its pEC50: `C[C@H]1[C@H](C(=O)O)[C@H]1[C@H](N)C(=O)O`
Solution: < 4.00

====

- Target System: Metabotropic glutamate receptor 7 (Rattus norvegicus)
- Sequence (P35400 whole entry): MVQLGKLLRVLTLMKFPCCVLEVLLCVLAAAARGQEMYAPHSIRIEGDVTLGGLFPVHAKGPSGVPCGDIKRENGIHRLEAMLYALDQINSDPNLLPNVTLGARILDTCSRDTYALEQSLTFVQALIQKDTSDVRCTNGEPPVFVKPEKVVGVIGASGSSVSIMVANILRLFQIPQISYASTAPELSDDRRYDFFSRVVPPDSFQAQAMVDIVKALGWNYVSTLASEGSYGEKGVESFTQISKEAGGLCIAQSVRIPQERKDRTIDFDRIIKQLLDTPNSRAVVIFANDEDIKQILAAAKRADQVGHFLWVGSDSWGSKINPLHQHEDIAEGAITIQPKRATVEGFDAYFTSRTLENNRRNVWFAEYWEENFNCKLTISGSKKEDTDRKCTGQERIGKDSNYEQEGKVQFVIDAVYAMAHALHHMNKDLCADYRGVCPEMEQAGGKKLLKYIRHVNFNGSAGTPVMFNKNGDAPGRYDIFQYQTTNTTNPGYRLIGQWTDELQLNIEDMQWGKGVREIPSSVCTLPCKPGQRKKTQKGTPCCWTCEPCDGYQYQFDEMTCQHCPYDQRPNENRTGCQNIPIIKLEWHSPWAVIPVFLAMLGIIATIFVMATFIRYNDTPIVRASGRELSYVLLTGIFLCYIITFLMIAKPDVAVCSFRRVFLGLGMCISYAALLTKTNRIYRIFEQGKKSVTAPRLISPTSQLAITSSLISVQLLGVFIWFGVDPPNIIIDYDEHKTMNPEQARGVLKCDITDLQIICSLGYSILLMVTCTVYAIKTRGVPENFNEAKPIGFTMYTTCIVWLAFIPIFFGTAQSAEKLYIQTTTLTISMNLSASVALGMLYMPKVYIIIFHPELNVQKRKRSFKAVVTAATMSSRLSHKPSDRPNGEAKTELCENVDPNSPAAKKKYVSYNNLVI
- Experiment Notes: Metabotropic glutamate receptor 7 antagonist activity to influence forskolin stimulated c-AMP formation in rat non neuronal cells
- Type: functional, cell-based
Measurement Name: EC50 (µM)
Please reply with the bare figure in µM and do not write the unit itself.

Problem: State its EC50: N[C@H](C(=O)O)C1[C@@H](C(=O)O)[C@@H]1C(=O)O (stereo partly specified)
Solution: 40

====

The following compounds are shown together with reported EC50 values.
- Target System: Metabotropic glutamate receptor 3 (Rattus norvegicus)
- Sequence (P31422 whole entry): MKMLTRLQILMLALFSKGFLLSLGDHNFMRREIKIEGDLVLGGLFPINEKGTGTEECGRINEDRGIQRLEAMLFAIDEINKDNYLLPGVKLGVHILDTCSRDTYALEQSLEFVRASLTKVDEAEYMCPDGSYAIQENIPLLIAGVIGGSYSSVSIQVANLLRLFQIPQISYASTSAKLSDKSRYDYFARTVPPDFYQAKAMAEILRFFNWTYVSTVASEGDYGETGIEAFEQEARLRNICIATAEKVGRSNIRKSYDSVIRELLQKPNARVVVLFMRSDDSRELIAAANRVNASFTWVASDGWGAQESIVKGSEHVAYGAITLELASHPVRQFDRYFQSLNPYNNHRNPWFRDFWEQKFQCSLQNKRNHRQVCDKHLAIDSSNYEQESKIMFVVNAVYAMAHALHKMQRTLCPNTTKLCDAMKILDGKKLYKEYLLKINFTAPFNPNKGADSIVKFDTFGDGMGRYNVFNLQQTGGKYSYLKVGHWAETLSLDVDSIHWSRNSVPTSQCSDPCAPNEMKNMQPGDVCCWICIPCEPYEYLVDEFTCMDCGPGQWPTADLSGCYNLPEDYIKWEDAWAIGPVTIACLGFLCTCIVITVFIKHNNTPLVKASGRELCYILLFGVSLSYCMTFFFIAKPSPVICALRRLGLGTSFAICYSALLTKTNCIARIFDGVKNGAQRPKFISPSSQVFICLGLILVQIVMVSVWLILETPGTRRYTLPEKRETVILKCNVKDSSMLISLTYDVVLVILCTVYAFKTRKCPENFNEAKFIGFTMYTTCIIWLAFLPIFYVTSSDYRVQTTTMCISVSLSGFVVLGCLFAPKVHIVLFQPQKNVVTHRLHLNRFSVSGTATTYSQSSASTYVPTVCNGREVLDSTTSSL
- Experiment Notes: Metabotropic glutamate receptor 3 agonist activity against forskolin stimulated c-AMP formation in rat non neuronal cells
- Assay type: functional, cell-based

Study these solved cases before continuing.
# Compound, Target System, EC50
data = [
    ("N[C@@H](CCP(=O)(O)O)C(=O)O", "Metabotropic glutamate receptor 3 (Rattus norvegicus)", "> 100 µM"),
    ("N[C@H](C(=O)O)c1ccc(C(=O)O)c(C(=O)O)c1", "Metabotropic glutamate receptor 3 (Rattus norvegicus)", "> 100 µM"),
]

Shift focus to the following entry.
Problem: State its EC50: NC(C(=O)O)c1ccc(P(=O)(O)O)cc1 (racemic)
Solution: > 200 µM
